# Tested on: CCRF-CEM leukemia
# assay_procedure: NCI-60 one-dose screen, 48 h (100 = growth as untreated, 0 = no growth, -100 = all killed)
# assay_context: 10 µM unless noted
Compounds without any hit were thinned out: in the full panel of roughly 83,000, 20% have a hit. Activity calls are given as the source filed them. How the source made its calls: active means growth percent below 10; inactive means the rest.
readout_name: growth

Example compounds with recorded growth:
compound	experimental_target	growth
O=S(=O)(O)c1ccc(F)cc1	CCRF-CEM leukemia	90.6% (inactive)
c1nc(SC2=NCCN2)c2[nH]cnc2n1	CCRF-CEM leukemia	31.3% (inactive)
Cc1ccc2oc(=O)cc(C3C(C#N)=C(N)Oc4c3ccc3ccccc43)c2c1 (stereo not given)	CCRF-CEM leukemia	81.9% (inactive)
CCCCOc1c(N)cccc1C(=O)OCCN(CC)CC	CCRF-CEM leukemia	90.6% (inactive)

Now let's try a different one.
Inquiry: Report growth under test system CCRF-CEM leukemia for `CC(C)(C)OC(=O)N1CCN(CCn2cc(C(F)(F)F)c3c(Cl)ncnc32)CC1` .
Reply text: 28.5% (inactive)

----------
# Tested on: IGROV1 ovarian
# assay_procedure: NCI-60 one-dose screen, 48 h (100 = growth as untreated, 0 = no growth, -100 = all killed)
# assay_context: 10 µM unless noted
About 83,000 compounds went through this panel and 20% of them were active in at least one assay; those are over-represented in the sample as a whole.
Lab note: cut-off is 80%. Strictly less in growth is true. Exactly 80% or more is false.

Worked set:
molecule	cat
c1ccc(OCC[P+](c2ccccc2)(c2ccccc2)c2ccccc2)cc1	true
COc1ccc(OC)c(NCC(=O)n2nc(/C=C\c3ccc(O)c(OC)c3)cc2/C=C\c2ccc(O)c(OC)c2)c1	true
O=C1C(Cl)=C(Nc2cccc3cc4ccccc4nc23)C(=O)c2ccccc21	true
C#C[C@@]1(O)[C@@H](CO)O[C@@H](n2cc(C(F)(F)F)c3c(N)ncnc32)[C@@H]1O	true
CCn1c(SCC(=O)c2ccc(Br)cc2)nnc1-c1cc2c([nH]c3ccccc32)c(-c2cccc(O)c2)n1	false

Inquiry: Please state whether growth is below 80% for `CCCc1nn2c(CCC(=O)c3nc4ccc([N+](=O)[O-])cc4[nH]3)nnc2s1`
Reply text: false

Inquiry: Please state whether growth is below 80% for S=C=NP1(N=C=S)=NP(N=C=S)(N=C=S)=NP(N=C=S)(N=C=S)=NP(N=C=S)(N=C=S)=N1 (centres undefined)
Reply text: false

Inquiry: Please state whether growth is below 80% for `Cc1ccc(=O)n(-c2ccc(Br)cc2F)c1`
Reply text: false

Inquiry: Please state whether growth is below 80% for `Nc1ccc(S(=O)(=O)Nc2cc(I)cc(I)c2)cc1`
Reply text: false

Inquiry: Please state whether growth is below 80% for CC(C)(c1ccc(OCC(O)CNCc2ccco2)cc1)c1ccc(OCC(O)CNCc2ccco2)cc1 (centres undefined)
Reply text: false

Inquiry: Please state whether growth is below 80% for `FC(F)(F)c1cn(CC2CNC2)c2ncnc(Cl)c12`
Reply text: false

Inquiry: Please state whether growth is below 80% for `O=S(=O)(CCN1CCOCC1)Nc1cncc(-c2ccc3ncnc(Nc4ccc(F)c(Cl)c4)c3c2)c1`
Reply text: true

Inquiry: Please state whether growth is below 80% for `O=C(CSc1nnc(-c2cc3c([nH]c4ccccc43)c(-c3cccc(O)c3)n2)n1-c1ccccc1)c1ccccc1`
Reply text: true

Inquiry: Please state whether growth is below 80% for `COc1cccc(-c2nc3sccn3c2-c2ccnc(NCCNC(=O)Nc3cccc(C(F)(F)F)c3)n2)c1`
Reply text: true

Inquiry: Please state whether growth is below 80% for `C=CCOc1ccc(/C(Cl)=N/N=C(\Cl)c2cc(OC)c(OC)c(OC)c2)cc1`
Reply text: true

Inquiry: Please state whether growth is below 80% for CCCCCCCCN(CCCCCCCC)CC(O)c1cc(-c2ccccc2)nc2ccc(OC)cc12 (centres undefined)
Reply text: false

Inquiry: Please state whether growth is below 80% for `Cc1nssc1=S`
Reply text: true

Inquiry: Please state whether growth is below 80% for `COc1ccc(/C=C/C(=O)c2ccc(NC(=O)CSc3nnc(-c4cc(OC)c(OC)c(OC)c4)o3)cc2)cc1`
Reply text: true

Inquiry: Please state whether growth is below 80% for CCOC(=O)C1CSC(C)(C(=O)OCC)N1 (centres undefined)
Reply text: false

Source listed as PubChem BioAssay (NCI).
